# Experimental system: FPR2 (Homo sapiens)
# Construct: expressed in transfected cells
# Method: Ca2+ mobilization in FPR2-transfected HL60 cells
# Format: cell-based
# Settings: % of the response induced by 5 nM WKYMVm
Experimental readout: efficacy (%) HL60‐FPR2
Please make sure the unit comes right after the number.

INSERT INTO assay_data (smiles_text, experimental_readout, value_measured) VALUES
  ('Nc1cn(-c2ccccc2)n(CC(=O)Nc2ccc(Br)cc2)c1=O', 'efficacy (%) HL60‐FPR2', '50%'),
  ('COc1cccc(-c2nn(CC(=O)Nc3ccc(Br)cc3)c(C)c2C#N)c1', 'efficacy (%) HL60‐FPR2', '75%');

Let us move to another entry and its efficacy (%) HL60‐FPR2.
Prompt: Would you kindly share the measured efficacy (%) HL60‐FPR2 for Cc1cc(OCC(=O)Nc2ccc(Br)cc2)n[nH]1 ?
Response: 60%

====

# Experimental system: FPR2 (Homo sapiens)
# Construct: expressed in transfected cells
# Sequence (P25090 1-351): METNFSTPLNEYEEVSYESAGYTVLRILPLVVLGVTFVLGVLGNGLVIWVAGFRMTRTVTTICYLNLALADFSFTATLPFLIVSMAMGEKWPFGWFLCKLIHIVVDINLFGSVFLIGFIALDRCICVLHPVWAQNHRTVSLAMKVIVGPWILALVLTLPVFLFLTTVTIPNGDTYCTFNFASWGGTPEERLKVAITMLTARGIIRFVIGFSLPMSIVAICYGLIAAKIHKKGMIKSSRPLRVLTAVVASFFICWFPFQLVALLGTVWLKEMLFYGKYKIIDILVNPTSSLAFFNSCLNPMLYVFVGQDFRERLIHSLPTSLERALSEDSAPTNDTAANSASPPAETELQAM
# Method: Ca2+ mobilization in FPR2-transfected HL60 cells
# Type: cell-based
compounds and their reported EC50

INSERT INTO assay_data (compound, experimental_readout, value_measured) VALUES
  ('CCCCCCn1c(=O)c(-c2cccc(OC)c2)cn1-c1ccccc1 [Compound 13f]', 'EC50', '10.5 µM'),
  ('Nc1cn(-c2ccccc2)n(CC(=O)Nc2ccc(Br)cc2)c1=O', 'EC50', '23.1 µM'),
  ('Cc1cc(OCC(=O)Nc2ccc(Br)cc2)n[nH]1', 'EC50', '25.9 µM'),
  ('COc1cccc(-c2nn(CC(=O)Nc3ccc(Br)cc3)c(C)c2C#N)c1', 'EC50', '6.1 µM');

Prompt: Data request, read-out EC50, for COc1cccc(Nc2ccnn2CC(=O)Nc2ccc(Br)cc2)c1
Response: 23.4 µM

====

# Experimental system: FPR1 (Homo sapiens, UniProt P21462)
# Construct: expressed in transfected cells
# Sequence (P21462 1-350): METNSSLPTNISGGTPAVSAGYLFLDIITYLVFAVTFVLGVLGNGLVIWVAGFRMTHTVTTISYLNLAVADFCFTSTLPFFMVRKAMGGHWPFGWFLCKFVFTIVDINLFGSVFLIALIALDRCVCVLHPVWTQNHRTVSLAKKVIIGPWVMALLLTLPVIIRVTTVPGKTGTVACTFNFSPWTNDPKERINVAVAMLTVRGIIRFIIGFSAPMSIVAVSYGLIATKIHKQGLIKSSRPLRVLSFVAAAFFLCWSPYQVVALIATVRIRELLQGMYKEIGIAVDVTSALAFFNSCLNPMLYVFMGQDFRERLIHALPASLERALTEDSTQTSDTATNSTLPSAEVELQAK
# Method: Ca2+ mobilization in FPR1-transfected HL60 cells
# Assay type: cell-based
# Settings: % of the response induced by 5 nM fMLF
Experimental readout: efficacy (%) HL60‐FPR1
Write it as a number; the unit % goes unstated.

INSERT INTO assay_data (compound, experimental_readout, value_measured) VALUES
  ('COc1cccc(Nc2c(C(C)=O)c(C)nn(CC(=O)Nc3ccc(Br)cc3)c2=O)c1 [EC10, reference compound]', 'efficacy (%) HL60‐FPR1', 185);

Prompt: Any idea what efficacy (%) HL60‐FPR1 was measured for Cc1cc(OCC(=O)Nc2ccc(Br)cc2)n[nH]1 ?
Response: 60

Prompt: Item under review: CCCCCCn1c(=O)c(-c2cccc(OC)c2)cn1-c1ccccc1 [Compound 13f] . Reported efficacy (%) HL60‐FPR1?
Response: 35

Prompt: I'd like to know its efficacy (%) HL60‐FPR1. The compound in question is COc1cccc(Nc2ccnn2CC(=O)Nc2ccc(Br)cc2)c1
Response: 85

Prompt: Requested read-out: efficacy (%) HL60‐FPR1. Entry: COc1cccc(-c2nn(CC(=O)Nc3ccc(Br)cc3)c(C)c2C#N)c1
Response: 75

Prompt: Quick one: efficacy (%) HL60‐FPR1 for COc1cccc(Cc2c(C)c(C)nn(CC(=O)Nc3ccc(Br)cc3)c2=O)c1 [EC3, reference compound] ?
Response: 85

====

As shown below, each of these molecules has a reported melting point value.

Consider the reported melting point for these molecules:
INSERT INTO measurements (smiles_text, value_measured) VALUES
  ('Nc1cn(-c2ccccc2)n(CC(=O)Nc2ccc(Br)cc2)c1=O', '160 to 163 °C'),
  ('COc1ccc(Nc2c(C)c(-c3ccccc3)nn2CC(=O)Nc2ccc(Br)cc2)cc1', '212 to 214 °C');

Proceed to the following item.
Prompt: Look at this molecule and give its reported melting point. COc1cccc(Nc2ccnn2CC(=O)Nc2ccc(Br)cc2)c1
Response: 140 to 143 °C

====

# Experimental system: FPR1 (Homo sapiens, UniProt P21462)
# Construct: expressed in transfected cells
# Method: Ca2+ mobilization in FPR1-transfected HL60 cells
# Format: cell-based
# Settings: Ca2+ mobilization; mean of three independent experiments; N.A. = no activity (limits efficacy <20% and EC50 < 50 µM)
EC50 values by entry
Your answer should be a plain number; it is taken to be in µM.

INSERT INTO assay_data (molecule, experimental_readout, value_measured) VALUES
  ('COc1cccc(Cc2c(C)c(C)nn(CC(=O)Nc3ccc(Br)cc3)c2=O)c1 [EC3, reference compound]', 'EC50', 0.019);

Prompt: Any idea what EC50 came out for COc1cccc(Nc2c(C(C)=O)c(C)nn(CC(=O)Nc3ccc(Br)cc3)c2=O)c1 [EC10, reference compound] on FPR1 (Homo sapiens, UniProt P21462)?
Response: 0.045

====

# System: human neutrophils (hPMN)
# Method: Ca2+ mobilization in human neutrophils (hPMN)
# Assay type: cell-based
# Settings: % of the response induced by 5 nM fMLF
# efficacy (%) hPMN listing for each entry below
Express it in %; write the number only.

// solved cases for efficacy (%) hPMN follow
INSERT INTO results (molecule, experimental_readout, readout_units, value_measured) VALUES
  ('COc1cccc(Nc2c(C(C)=O)c(C)nn(CC(=O)Nc3ccc(Br)cc3)c2=O)c1 [EC10, reference compound]', 'efficacy (%) hPMN', '%', 150),
  ('COc1cccc(Nc2ccnn2CC(=O)Nc2ccc(Br)cc2)c1', 'efficacy (%) hPMN', '%', 75),
  ('Cc1cc(OCC(=O)Nc2ccc(Br)cc2)n[nH]1', 'efficacy (%) hPMN', '%', 55),
  ('COc1cccc(-c2nn(CC(=O)Nc3ccc(Br)cc3)c(C)c2C#N)c1', 'efficacy (%) hPMN', '%', 80),
  ('CCCCCCn1c(=O)c(-c2cccc(OC)c2)cn1-c1ccccc1 [Compound 13f]', 'efficacy (%) hPMN', '%', 55);

Prompt: # get_value(readout='efficacy (%) hPMN', item= COc1cccc(Cc2c(C)c(C)nn(CC(=O)Nc3ccc(Br)cc3)c2=O)c1 [EC3, reference compound] )
Response: 150

====

# Experimental system: FPR1 (Homo sapiens)
# Construct: expressed in transfected cells
# Method: Ca2+ mobilization in FPR1-transfected HL60 cells
# Type: cell-based
Experimental readout: EC50 (µM)
The figure you give is taken to be in µM; do not add the unit.

Prompt: Give its EC50 value. Item: Cc1cc(OCC(=O)Nc2ccc(Br)cc2)n[nH]1
Response: 9.8

Prompt: Recorded EC50 for COc1cccc(-c2nn(CC(=O)Nc3ccc(Br)cc3)c(C)c2C#N)c1 , please?
Response: 18.4

Prompt: What value of EC50 has been reported for the following compound? CCCCCCn1c(=O)c(-c2cccc(OC)c2)cn1-c1ccccc1 [Compound 13f]
Response: 20.2

Prompt: # get_value(readout='EC50', item= COc1cccc(Nc2ccnn2CC(=O)Nc2ccc(Br)cc2)c1 )
Response: 13.2

====

melting point values for the molecules below.

Worked examples follow.
INSERT INTO measurements (smiles_text, value_measured) VALUES
  ('O=C(Cn1c(=O)ccn1-c1ccccc1)Nc1ccc(Br)cc1', '136 to 139 °C'),
  ('COc1cccc(Nc2c(C)c(-c3ccccc3)nn2CC(=O)Nc2ccc(Br)cc2)c1', '> 300 °C (dec.)'),
  ('COc1ccc(Nc2c(C#N)cnn2CC(=O)Nc2ccc(Br)cc2)cc1', '136 to 139 °C');

Here is another molecule to look at.
Prompt: Return reported melting point; argument: COc1cccc(Nc2cn(-c3ccccc3)n(CC(=O)Nc3ccc(Br)cc3)c2=O)c1
Response: 163 to 166 °C
